- System: CEM cells
- Assay type: cell-based
- Procedure: Quantitative evaluation of the viral inhibition were performed on the T-cell lymphoblastoid cell lines MT-2 (Harada et al., 1985, Science 229:563-566) and CEM (Nara and Fischinger, 1988, Nature 332:469-470). The cells were infected with the HTLV-IIIB strain of HIV-1 from the supernatant fluid of infected human T-lymphocyte cell line H9 (Popovic, M. et al., 1984, Science 224:497-500). […] Susceptible MT-2 and CEM cells were grown and the cell population determined by a trypan blue viable cell count. […]
Non-standard residues stand in square brackets, D forms with d. Residues, ends and D or L forms follow the SMILES beside them. Sta = CC(C)C[C@H](N)[C@@H](O)CC(=O)O
Reported IC25 (Table V) values follow for various compounds
# output: bare number, implied unit mg/L

Some entries whose results are on file:
- COMPOUND: "CC(=O)N[C@@H](Cc1ccccc1)C(=O)N1CCC[C@H]1C(=O)N[C@@H](Cc1ccccc1)C(=O)N[C@H](C(=O)N[C@@H](CC(C)C)[C@@H](O)CC(=O)N[C@@H](CC(C)C)C(=O)N[C@@H](Cc1ccccc1)C(N)=O)C(C)C [P-10, Ac Phe Pro Phe Val Statine Leu Phe NH2] (Ac-FPFV[Sta]LF-NH2)"
  VALUE_UNIT: "mg/L"
  IC25 (Table V): 49
- COMPOUND: "Nc1ccn([C@H]2CC[C@@H](CO)O2)c(=O)n1 [DDC, 2', 3Dideoxycytidine]"
  VALUE_UNIT: "mg/L"
  IC25 (Table V): 0.04

[ask] Quick one: IC25 (Table V) of CC(=O)N[C@@H](Cc1c[nH]c2ccccc12)C(=O)N1CCC[C@H]1C(=O)N[C@@H](Cc1ccccc1)C(=O)N[C@H](C(=O)N[C@@H](CC(C)C)[C@@H](O)CC(=O)N[C@@H](CC(C)C)C(=O)N[C@@H](Cc1ccccc1)C(N)=O)C(C)C [P-8, Ac Trp Pro Phe Val Statine Leu Phe NH2] (Ac-WPFV[Sta]LF-NH2) ?
[reply] 49

* * *

- Tested on: CEM cells
- Format: cell-based
Non-standard residues stand in square brackets, D forms with d. Residues, ends and D or L forms follow the SMILES beside them. Sta = CC(C)C[C@H](N)[C@@H](O)CC(=O)O
MEASURE: TC50 (concentration that reduced cell viability by 50%) (µg/mL)
# output: bare number, implied unit µg/mL

- COMPOUND: "CC(=O)N[C@@H](Cc1ccccc1)C(=O)N1CCC[C@H]1C(=O)N[C@@H](Cc1ccccc1)C(=O)N[C@H](C(=O)N[C@@H](CC(C)C)[C@@H](O)CC(=O)N[C@@H](CC(C)C)C(=O)N[C@@H](Cc1ccccc1)C(N)=O)C(C)C [P-10, Ac Phe Pro Phe Val Statine Leu Phe NH2] (Ac-FPFV[Sta]LF-NH2)"
  VALUE_UNIT: "µg/mL"
  NUMERIC_RESULT: 55

Next up:
[ask] Quick one: TC50 (concentration that reduced cell viability by 50%) of `Nc1ccn([C@H]2CC[C@@H](CO)O2)c(=O)n1` ?
[reply] 0.8

* * *

Reported MTC50 (minimum cytotoxic drug concentration that reduces cell viability to 50%) values follow for various molecules
- System: MT-2 cells
- Format: cell-based
Non-standard residues stand in square brackets, D forms with d. Residues, ends and D or L forms follow the SMILES beside them. Phe(4-NH2) = Nc1ccc(C[C@H](N)C(=O)O)cc1; 1Nal = N[C@@H](Cc1cccc2ccccc12)C(=O)O; Sta = CC(C)C[C@H](N)[C@@H](O)CC(=O)O

Some entries whose results are on file:
- MOLECULE: "CC(C)C[C@H](NC(=O)C[C@H](O)[C@H](CC(C)C)NC(=O)[C@@H](NC(=O)[C@H](Cc1ccccc1)NC(=O)[C@@H]1CCCN1C(=O)[C@@H](N)Cc1c[nH]cn1)C(C)C)C(=O)N[C@@H](Cc1ccccc1)C(=O)N[C@@H](Cc1ccc(N)cc1)C(N)=O [P-15] (H-HPFV[Sta]LF[Phe(4-NH2)]-NH2)"
  MEASURED_TARGET: "MT-2 cells"
  RESULT: "> 100 µg/mL"
- MOLECULE: "CC(C)C[C@H](NC(=O)C[C@H](O)[C@H](CC(C)C)NC(=O)[C@@H](NC(=O)[C@H](Cc1ccccc1)NC(=O)[C@@H]1CCCN1C(=O)[C@H](Cc1ccc(N)cc1)NC(=O)[C@@H]1CCCN1)C(C)C)C(=O)N[C@@H](Cc1ccccc1)C(=O)N[C@@H](Cc1ccc(N)cc1)C(N)=O [P-1] (H-P[Phe(4-NH2)]PFV[Sta]LF[Phe(4-NH2)]-NH2)"
  MEASURED_TARGET: "MT-2 cells"
  RESULT: "> 100 µg/mL"
- MOLECULE: "CC(=O)N[C@@H](Cc1cccc2ccccc12)C(=O)N1CCC[C@H]1C(=O)N[C@@H](Cc1ccccc1)C(=O)N[C@H](C(=O)N[C@@H](CC(C)C)[C@@H](O)CC(=O)N[C@@H](CC(C)C)C(=O)N[C@@H](Cc1ccccc1)C(N)=O)C(C)C [P-7, Ac NA Pro Phe Val Statine Leu Phe NH2] (Ac-[1Nal]PFV[Sta]LF-NH2)"
  MEASURED_TARGET: "MT-2 cells"
  RESULT: "24.4 µg/mL"

Next up:
[ask] Quick one: MTC50 (minimum cytotoxic drug concentration that reduces cell viability to 50%) of Nc1ccn([C@H]2CC[C@@H](CO)O2)c(=O)n1 [DDC, 2', 3Dideoxycytidine] ?
[reply] > 10 µg/mL
